Test parameters: 293.15 K; 101.33 kPa; Liquid; Sing-around technique in a fixed-path interferometer
Test readout: speed of sound (m/s)
Quick note: give the figure in m/s, leave out the unit.

IN: Query (compound): CC(C)O ; field requested: speed of sound
OUT: 1157.3

IN: Query (compound): CCCO ; field requested: speed of sound
OUT: 1223.4

IN: Query (compound): CCC(C)O (stereo unspecified) ; field requested: speed of sound
OUT: 1229.5

IN: Query (compound): CCCCCO ; field requested: speed of sound
OUT: 1292.5

IN: Query (compound): CCCCn1cc[n+](C)c1.N#CN=C=[N-] [1-butyl-3-methylimidazolium dicyanamide] ; field requested: speed of sound
OUT: 1750.2

IN: Query (compound): CCCCO ; field requested: speed of sound
OUT: 1256.7
